// provenance: ChEMBL document CHEMBL1961873

# reported inhibition; entries follow
Target or system: Serine/threonine-protein kinase MRCK beta (Homo sapiens);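 note: values are mean percent inhibition of MRCKB, screened as part of the GSK PKIS kinase inhibitor set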
Stated conditions: at 0.1 µM
Answer in %, number only, no unit symbol.

These recorded examples may help you get a feel for the data.
# Compound smiles, inhibition / %
measured = [
    ("FC(F)(F)CNc1nccc(-c2cnn3ncccc23)n1", -0.09),
    ("CC(C)c1ccc(-c2cc(-c3c[nH]nc3-c3ccccn3)ccn2)cc1", -0.59),
    ("Cc1c2ccc(N(C)c3ccnc(Nc4cccc(S(N)(=O)=O)c4)n3)cc2nn1C", 0.8),
    ("NS(=O)(=O)c1ccc(N/N=C2\\C(=O)Nc3cccc(CCc4ccncc4)c32)cc1", 0.54),
    ("CCN1CCC(C(=O)Nc2n[nH]c3nnc(-c4cccc(F)c4F)cc23)CC1", 0.8),
]

Please find the next compound below.
Asked: Using the record for `NS(=O)(=O)c1cccc(N/C=C2\C(=O)Nc3ccccc32)c1` , report its inhibition.
Given back: 0.57
